# experiment_notes: PET-CT tumour retention of the tracer after ICI treatment
# Assay type: in vivo, BALB/c mice
# protocol_conditions: BALB/c, mouse, CT26 tumour, iv, 10 MBq, total radioactivity, Control group (isotype IgG); PET-CT day 12, 20 min static from 60 min post-injection, ~10 MBq i.v.; mean ± SD, n = 10 mice/group
# Text: All animal procedures strictly followed IACUC guidelines (IACUC No. 181399) and conformed to NIH guidelines and public law. Development of the animal model has been described previously. […] Tumour volumes were repeatedly measured on days 6, 9, 12, 15, 19 and 21 post tumour implantation. […]
Bridges are numbered along the chain shown (N, C = ends). Where no end group is shown, it is not given here. The star is where a group is joined. NOTA = O=C(O)CN1CCN(CC(=O)O)CCN(CC(=O)*)CC1
metric_name: tissue uptake (%ID/g)
Respond with the bare value in %ID/g.

**Query** Report measured tissue uptake; entry is {NOTA}-RTCESASHKFEGPCLRDSNCANVCKTEGFHGGKCKGLRRRCFCTKHC (disulfide 3-47, 14-34, 20-41, 24-43) [[^18F]AlF-NOTA-KCNA3P]
**Result** 0.51
